Data provenance: patent US20180362585A1

# TEST_TARGET: T1, human plasma Kallikrein (human, UniProt P03952 20-638)
# T1 construct: also called hPK; human PK
# T1 sequence (P03952 20-638 limits assumed): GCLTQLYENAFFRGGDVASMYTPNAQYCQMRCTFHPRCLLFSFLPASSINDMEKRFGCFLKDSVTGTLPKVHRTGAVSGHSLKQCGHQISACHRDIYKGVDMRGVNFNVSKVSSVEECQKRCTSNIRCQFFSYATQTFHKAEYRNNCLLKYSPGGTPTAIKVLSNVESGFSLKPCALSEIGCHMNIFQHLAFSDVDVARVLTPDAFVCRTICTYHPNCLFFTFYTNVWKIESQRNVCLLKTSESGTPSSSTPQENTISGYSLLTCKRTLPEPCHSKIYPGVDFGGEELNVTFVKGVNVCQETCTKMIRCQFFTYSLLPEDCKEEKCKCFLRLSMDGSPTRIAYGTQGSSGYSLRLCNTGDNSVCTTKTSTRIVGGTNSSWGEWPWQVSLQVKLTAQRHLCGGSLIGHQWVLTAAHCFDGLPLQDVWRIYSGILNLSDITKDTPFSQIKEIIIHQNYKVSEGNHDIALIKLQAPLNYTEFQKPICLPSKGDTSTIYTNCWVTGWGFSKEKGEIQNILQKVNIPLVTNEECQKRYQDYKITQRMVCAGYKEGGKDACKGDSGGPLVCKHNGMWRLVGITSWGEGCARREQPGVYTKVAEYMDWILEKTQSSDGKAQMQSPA
# ASSAY_REMARKS: phage binding assay
Numbered stars: 1 amine (or outer) side, 2 acyl side, 3 side chain; on linkers, the order of the positions; unused ones are H or OH. Bridge positions count the residues as written; N and C are the ends. Ends that are not written are not given here. TBMB = c1c(C[*:1])cc(C[*:3])cc1C[*:2]
OBSERVATION_TYPE: RANK (Kallikrein binding)
The answer should be a number; do not append a unit.

Req: Please supply the value of reported RANK (Kallikrein binding) for the item CSWWARCTHQDLC (linker 1-7-13 via TBMB, on phage)
Resp: 27

Req: Report RANK (Kallikrein binding), nothing else, for this binder: CSWLARCTHQDLC (linker 1-7-13 via TBMB, on phage)
Resp: 4

Req: State, in one line, measured RANK (Kallikrein binding) of CSQVVGCTHQDLC (linker 1-7-13 via TBMB, on phage)
Resp: 38

Req: Give me measured RANK (Kallikrein binding), please, for this binder: CRFPFKCTHQDLC (linker 1-7-13 via TBMB (inferred), on phage)
Resp: 11

Req: Look up and state reported RANK (Kallikrein binding) for CSWSYRCTHQDLC (linker 1-7-13 via TBMB, on phage)
Resp: 36

Req: Look up and report measured RANK (Kallikrein binding) for this entry: CSFSYKCTHQDLC (linker 1-7-13 via TBMB (inferred), on phage)
Resp: 35

Req: Input CSWPSRCTHQDLC (linker 1-7-13 via TBMB, on phage) , output reported RANK (Kallikrein binding).
Resp: 2

Req: Return the recorded RANK (Kallikrein binding) value; entry: CSMPYRCTHQDLC (linker 1-7-13 via TBMB, on phage)
Resp: 31

Req: Name the recorded RANK (Kallikrein binding) of the item CSFPFWCTHQDLC (linker 1-7-13 via TBMB (inferred), on phage) in your answer.
Resp: 34

Req: Supply reported RANK (Kallikrein binding) belonging to this binder: CSHPFRCTHQDLC (linker 1-7-13 via TBMB (inferred), on phage)
Resp: 9

Req: Give reported RANK (Kallikrein binding) value for CSYPFRCTHQDLC (linker 1-7-13 via TBMB, on phage)
Resp: 21

Req: Look up RANK (Kallikrein binding) of CSWSARCTHQDLC (linker 1-7-13 via TBMB, on phage) and report it.
Resp: 19

Req: Consider the binder CSYPIRCTHQDLC (linker 1-7-13 via TBMB, on phage) and give its recorded RANK (Kallikrein binding).
Resp: 18
